assay: Selectivity index, ratio of CC50 for MDCK cells to EC50 for antiviral activity against Influenza A virus (A/Puerto Rico/8/1934(H1N1)) infected in MDCK cells; type: toxicity, cell-based; details: dog, read-out: Ratio CC50/EC50
Below is a list of entries, each paired with its recorded selectivity ratio value.
Write no unit; give the number alone.

{"Molecule smiles": "CC[C@H](C)[C@H](NC(=O)OCc1ccccc1)C(=O)N(C1CC1)C1(C(=O)NCc2ccccc2)CCN(Cc2ccccc2)CC1", "Endpoint value": 8}

Now look at this entry.
Prompt: Let me know recorded selectivity ratio for `COC(=O)C[C@H](NC(=O)OC(C)(C)C)C(=O)N(Cc1ccc(F)cc1)C1(C(=O)NCc2ccccc2)CCN(Cc2ccccc2)CC1` , thanks.
Completion: 18

Recorded values, source ChEMBL document CHEMBL4680243.
